The measured values listed here are drawn from PubChem BioAssay (EPA / NIEHS).

read-out: Hypoxia-inducible factor 1-alpha (Homo sapiens); experiment: LTEA_HepaRG_HIF1A: Life Technologies and Expression Analysis (LTEA) Assay for Hypoxia-inducible factor 1 (HIF1A) Trancription factor using HepaRG (AID 2283503); conditions: mRNA level, 48 h; actives raise or lower the signal;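 note: HIF1A transcript by TaqMan qRT-PCR normalized to ACTB GAPDH and POLR2A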
The source made the active and inactive calls. Rule for the calls: active = hit-call score of the fitted dose curve at least 0.9, where 1 is the maximum; inactive = score below 0.9.
Write down the outcome that applies. Available outcomes: yes (active), no (inactive)

# count of solved cases: 5
INSERT INTO assay_data (compound, assigned_category) VALUES
  ('COC(=O)Nc1nc2ccccc2[nH]1', 'no'),
  ('N#CC(Br)Br', 'no'),
  ('OCCOCCO', 'no'),
  ('[O-][Cl+]O', 'no'),
  ('Cc1ccc(N)c(N)c1', 'no');

INPUT: For ClCCOCCCl , what call appears in the results of this test?
OUTPUT: no

INPUT: Each compound tested received a call. Report the one for [As]#[In] .
OUTPUT: no

INPUT: Dear all, I need the recorded test outcome for COP(=S)(OC)SCN1C(=O)c2ccccc2C1=O , thank you.
OUTPUT: no
